biological target: human recombinant ENPP1 (Homo sapiens); test: ENPP1 enzyme assay with cGAMP substrate (AMP-Glo luminescence); conditions: human recombinant ENPP1 3 ng/reaction, cGAMP 5 μM, 37° C. 90 minutes, read-out: Enzymatic activity (ENPP1 IC50)
Where a name gives a salt, the structure may show the parent alone.
attributeMeasured: IC50

>>> print(df.to_string())
                                   compound  attributemeasured  observedresult
0  Cn1nc(Cc2ccc(NS(N)(=O)=O)cc2)c2ccccc2c1=O [Example 181, hydrochloride]               IC50          < 1 µM
1  COc1cc2c(-c3ccc4c(c3)CCN(C(=O)OC(C)(C)C)C4)n[nH]c(=O)c2cc1OC               IC50         > 10 µM
2  COc1cc2c(-c3ccc(CNS(=O)(=O)NC(=O)OC(C)(C)C)cc3)nn(C)c(=O)c2cc1OC               IC50      1 to 10 µM
3  COc1cc2c(-c3ccc(CN(C)S(N)(=O)=O)c(F)c3)n[nH]c(=O)c2cc1OC [Compound No. 113, hydrochloride]               IC50      1 to 10 µM
4  COc1ccc2c(-c3ccc(CNC(=O)OC(C)(C)C)cc3)nn(C)c(=O)c2c1               IC50         > 10 µM

Give one value of IC50 per listed compound.
1. COc1cc2c(-c3ccc4c(c3)CNCC4)n[nH]c(=O)c2cc1OC
2. Cn1nc(Cc2ccc(NC(=O)OC(C)(C)C)cc2)c2ccccc2c1=O
3. NS(=O)(=O)Nc1ccc(Cc2n[nH]c(=O)c3ccccc23)c(F)c1 [Example 189, hydrochloride]

Reply |
1: > 10 µM; 2: > 10 µM; 3: < 1 µM

Give one value of IC50 per listed compound.
1. Cc1ccc(S(=O)(=O)NCc2ccc(-c3n[nH]c(=O)c4ccccc34)cc2)cc1
2. COc1cc2c(Cc3cccc(NS(=O)(=O)NC(=O)OC(C)(C)C)c3)nn(C)c(=O)c2cc1OC
3. COc1ccc2c(=O)n(C)nc(-c3ccc(CNS(N)(=O)=O)cc3)c2c1 [Compound No. 105, hydrochloride]
4. CC(C)(C)OC(=O)NS(=O)(=O)NCc1ccc(-c2n[nH]c(=O)c3ccccc23)cc1C(F)(F)F
5. CNc1ccc(Cc2n[nH]c(=O)c3ccccc23)cc1 [Example 162, hydrochloride]
6. COc1cc2c(-c3ccc(CN(C)S(N)(=O)=O)c(C(F)(F)F)c3)n[nH]c(=O)c2cc1OC [Compound No. 120, hydrochloride]
7. Cn1nc(-c2cccc(CNC(=O)OC(C)(C)C)c2)c2ccccc2c1=O

Reply |
> 10 µM
> 10 µM
1 to 10 µM
> 10 µM
> 10 µM
> 10 µM
> 10 µM

---

biological target: human recombinant ENPP1 (Homo sapiens, UniProt P22413); assay: ENPP1 enzyme assay with cGAMP substrate (AMP-Glo luminescence); settings: human recombinant ENPP1 3 ng/reaction, cGAMP 5 μM, 37° C. 90 minutes, read-out: Enzymatic activity (ENPP1 IC50)
Sequence (P22413 whole entry): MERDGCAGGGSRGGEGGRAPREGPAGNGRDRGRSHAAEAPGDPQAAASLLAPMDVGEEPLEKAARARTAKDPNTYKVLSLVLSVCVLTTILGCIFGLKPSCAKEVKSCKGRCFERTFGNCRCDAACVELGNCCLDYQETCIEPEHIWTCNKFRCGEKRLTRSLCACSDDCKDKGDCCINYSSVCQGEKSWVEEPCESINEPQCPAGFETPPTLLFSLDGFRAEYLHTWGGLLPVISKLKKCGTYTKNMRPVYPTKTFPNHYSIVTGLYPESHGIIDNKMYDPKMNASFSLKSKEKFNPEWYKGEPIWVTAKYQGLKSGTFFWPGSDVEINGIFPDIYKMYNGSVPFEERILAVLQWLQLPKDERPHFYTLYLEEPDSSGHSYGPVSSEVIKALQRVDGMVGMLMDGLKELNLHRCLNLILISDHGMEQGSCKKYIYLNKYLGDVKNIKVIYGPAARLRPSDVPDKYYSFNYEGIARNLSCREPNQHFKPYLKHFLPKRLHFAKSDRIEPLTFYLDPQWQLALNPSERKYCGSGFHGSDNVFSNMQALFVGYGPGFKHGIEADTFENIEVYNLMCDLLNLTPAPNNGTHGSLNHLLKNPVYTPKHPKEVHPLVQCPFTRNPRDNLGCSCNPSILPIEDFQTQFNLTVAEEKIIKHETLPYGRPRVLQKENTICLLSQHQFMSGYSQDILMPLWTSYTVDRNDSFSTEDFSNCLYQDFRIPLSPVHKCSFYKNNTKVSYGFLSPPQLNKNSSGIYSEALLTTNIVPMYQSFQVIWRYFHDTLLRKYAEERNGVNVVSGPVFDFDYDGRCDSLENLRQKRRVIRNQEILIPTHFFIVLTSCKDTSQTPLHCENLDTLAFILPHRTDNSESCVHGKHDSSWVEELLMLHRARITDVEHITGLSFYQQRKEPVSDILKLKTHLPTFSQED
Counter-ions that a name gives are not always drawn.
Task for the reader: assign each of the following compounds its reported IC50.

Use the examples below as a reference point.
                                   compound                           targetundertest  observedresult
0  COc1cc2c(Cc3cccc(NS(N)(=O)=O)c3)nn(C)c(=O)c2cc1OC [Example 179, hydrochloride]  human recombinant ENPP1 (Homo sapiens, UniProt P22413)         > 10 µM
1  COc1cc2c(-c3ccc(CN)c(C(F)(F)F)c3)n[nH]c(=O)c2cc1OC [Example 203, hydrochloride]  human recombinant ENPP1 (Homo sapiens, UniProt P22413)         > 10 µM
2  COc1ccc2c(=O)[nH]nc(-c3ccc(CNC(=O)OC(C)(C)C)cc3)c2c1  human recombinant ENPP1 (Homo sapiens, UniProt P22413)         > 10 µM
3  Cn1nc(-c2cccc(NC(=O)OC(C)(C)C)c2)c2ccccc2c1=O  human recombinant ENPP1 (Homo sapiens, UniProt P22413)         > 10 µM
4  CCn1nc(-c2ccc(CN)cc2)c2ccccc2c1=O [Compound No. 38, hydrochloride]  human recombinant ENPP1 (Homo sapiens, UniProt P22413)          < 1 µM

Give one value of IC50 per listed compound.
1. Nc1ccc(Cc2n[nH]c(=O)c3ccccc23)cc1 [Example 158, hydrochloride]
2. Cn1nc(-c2cccc(N)c2)c2ccccc2c1=O [Compound No. 31, hydrochloride]
3. COc1cc2c(N3CCC(CNC(=O)OC(C)(C)C)CC3)n[nH]c(=O)c2cc1OC
4. NS(=O)(=O)NCC1CCN(c2n[nH]c(=O)c3ccccc23)CC1 [Compound No. 138, hydrochloride]
5. NCc1ccc(-c2nn(Cc3ccc(F)cc3)c(=O)c3ccccc23)cc1 [Compound No. 42, hydrochloride]
6. CC(C)(C)OC(=O)NCc1ccc(-c2nn(Cc3ccccc3)c(=O)c3ccccc23)cc1

Reply |
> 10 µM
> 10 µM
> 10 µM
< 1 µM
1 to 10 µM
> 10 µM

Give one value of IC50 per listed compound.
1. CC(C)(C)OC(=O)NS(=O)(=O)NCC1CCN(c2n[nH]c(=O)c3ccccc23)CC1
2. CN(c1ccc(Cc2n[nH]c(=O)c3ccccc23)cc1)S(=O)(=O)NC(=O)OC(C)(C)C
3. Cn1nc(-c2ccc(CCS(N)(=O)=O)cc2)c2ccccc2c1=O
4. COc1cc2c(Cc3ccc4c(c3)CCN4C(=O)OC(C)(C)C)nn(C)c(=O)c2cc1OC
5. COc1cc2c(Cc3ccc(NS(N)(=O)=O)cc3)n[nH]c(=O)c2cc1OC [Example 182, hydrochloride]
6. COc1cc2c(Cc3ccc(NS(=O)(=O)NC(=O)OC(C)(C)C)cc3)nn(C)c(=O)c2cc1OC
7. COc1cc2c(Cc3ccc(N(C)S(N)(=O)=O)cc3)nn(C)c(=O)c2cc1OC [Example 186, hydrochloride]
8. COc1cc2c(N3CCC(CNS(N)(=O)=O)CC3)n[nH]c(=O)c2cc1OC [Compound No. 139, hydrochloride]

Reply |
1. > 10 µM
2. > 10 µM
3. 1 to 10 µM
4. > 10 µM
5. < 1 µM
6. 1 to 10 µM
7. < 1 µM
8. < 1 µM

---

target: human recombinant ENPP1 (Homo sapiens); test: ENPP1 enzyme assay with cGAMP substrate (AMP-Glo luminescence); conditions: human recombinant ENPP1 3 ng/reaction, cGAMP 5 μM, 37° C. 90 minutes, read-out: Enzymatic activity (ENPP1 IC50)
Where a name gives a salt, the structure may show the parent alone.
attributeMeasured: IC50

Use the examples below as a reference point.
                                   compound  attributemeasured  observedresult
0            O=c1[nH]nc(-c2ccccc2)c2ccccc12               IC50      1 to 10 µM
1  COc1cc2c(Cc3ccc(NC(=O)OC(C)(C)C)cc3)nn(C)c(=O)c2cc1OC               IC50         > 10 µM
2  Nc1cccc(-c2nn(Cc3ccccc3)c(=O)c3ccccc23)c1 [Compound No. 32, hydrochloride]               IC50         > 10 µM
3  COc1cc2c(-c3ccc4c(c3)CCNC4)n[nH]c(=O)c2cc1OC [Compound No. 57, hydrochloride]               IC50      1 to 10 µM
4  NS(=O)(=O)NCCC1CCN(c2n[nH]c(=O)c3ccccc23)CC1               IC50         > 10 µM
5  COc1cc2c(N3CCC(CNS(=O)(=O)NC(=O)OC(C)(C)C)CC3)n[nH]c(=O)c2cc1OC               IC50         > 10 µM
6  COc1cc2c(Cc3ccc4c(c3)CCN4S(=O)(=O)NC(=O)OC(C)(C)C)n[nH]c(=O)c2cc1OC               IC50         > 10 µM
7  COc1cc2c(Cc3ccc4c(c3)CCN4)n[nH]c(=O)c2cc1OC [Example 165, hydrochloride]               IC50         > 10 µM

Give one value of IC50 per listed compound.
1. COc1cc2c(-c3ccc(CNS(N)(=O)=O)cc3F)n[nH]c(=O)c2cc1OC [Compound No. 112, hydrochloride]
2. CC(C)(C)OC(=O)Nc1cccc(-c2n[nH]c(=O)c3ccccc23)c1
3. COc1cc2c(-c3cccc(CNS(N)(=O)=O)c3)n[nH]c(=O)c2cc1OC
4. COc1cc2c(-c3ccc(CN)cc3)n[nH]c(=O)c2cc1OC [Compound No. 48, hydrochloride]

Reply |
1. 1 to 10 µM
2. > 10 µM
3. 1 to 10 µM
4. < 1 µM
